The origin of these recorded values is ChEMBL document CHEMBL5150057.

Tested on: A2780
Experiment: Cytotoxicity against human A2780 cells assessed as cell growth inhibition incubated for 72 hrs in presence of (2S,4R)-1-(2-amino-3,3-dimethyl-butanoyl)-4-hydroxy-N-[(1S)-1-[4-(4-methylthiazol-5-yl)phenyl]ethyl]pyrrolidine-2-carboxamide by CCK-8 assay
Assay type: functional, cell-based
Settings: A2780, 72 h
quantity: IC50 (nM)

chemical_string=CCCn1c(=O)c(-c2ccc(C(=O)NCc3cccnc3)cc2)nc2ccc(NC(=O)CCCCCCCCCCC(=O)N[C@H](C(=O)N3C[C@H](O)C[C@H]3C(=O)N[C@@H](C)c3ccc(-c4scnc4C)cc3)C(C)(C)C)cc21 value_units=nM assay_result=100

###

Experiment: Cmax in Sprague-Dawley rat at 30 mg/kg, ip measured upto 24 hrs by LC-MS/MS analysis
Assay type: ADME, organism-based
Design: dose 30 mg/kg, time < 24 hrs, route ip
Details: in vivo
quantity: Cmax (ng/mL)

chemical_string=CCCn1c(=O)c(-c2ccc(C(=O)NCc3cccnc3)cc2)nc2ccc(NC(=O)CCCCCCCCCCC(=O)N[C@H](C(=O)N3C[C@H](O)C[C@H]3C(=O)N[C@@H](C)c3ccc(-c4scnc4C)cc3)C(C)(C)C)cc21 assay_result=175

###

Assay: MRT (0 to infinity) in Sprague-Dawley rat at 30 mg/kg, ip measured upto 24 hrs by LC-MS/MS analysis
Type: ADME, organism-based
Settings: in vivo
quantity: MRT inf (h)

chemical_string=CCCn1c(=O)c(-c2ccc(C(=O)NCc3cccnc3)cc2)nc2ccc(NC(=O)CCCCCCCCCCC(=O)N[C@H](C(=O)N3C[C@H](O)C[C@H]3C(=O)N[C@@H](C)c3ccc(-c4scnc4C)cc3)C(C)(C)C)cc21 value_units=h assay_result=12.7
